# measuredOn: T1, AbApeR (FabB-like homodimeric ketosynthase of the A. baumannii APE gene cluster) (Acinetobacter baumannii)
# T1 construct: ApeR, ketoacyl-ACP synthase I (FabB)-like ketosynthase of the APE biosynthesis gene cluster, Acinetobacter baumannii (pathogenic strain, global clone 2); not shown: His6, N-terminal, cleaved
# assaySummary: ITC; 2.0 mM holo ACP1 or holo ACP2 injected (19 injections of 3 µl) into 0.1 mM AbApeO-AbApeC or AbApeR; 25 °C; 40 mM potassium phosphate pH 7.0; 2 mM 2-mercaptoethanol
# conditions: both partners purified
measurementType: Kd (µM)
Answers are plain numbers, in µM.

I would be grateful if you could share the reported Kd for holo ACP2 (ApeF), acyl carrier protein 2 of the A. baumannii APE gene cluster (natural protein, 4'-phosphopantetheine (holo form)) MSNLADELKQMIIDVLALEDITIADIDTEAPLFGEGLGLDSIDALELGLALKKRYNIHLNAESDETKQHFKSIQSLVALVEAQQKS .
41
